# Target entity: Cyclin-dependent kinase 6 (Homo sapiens); note: in the data inactive means no Kd found up to 30 µM
# Sequence (Q00534 whole entry): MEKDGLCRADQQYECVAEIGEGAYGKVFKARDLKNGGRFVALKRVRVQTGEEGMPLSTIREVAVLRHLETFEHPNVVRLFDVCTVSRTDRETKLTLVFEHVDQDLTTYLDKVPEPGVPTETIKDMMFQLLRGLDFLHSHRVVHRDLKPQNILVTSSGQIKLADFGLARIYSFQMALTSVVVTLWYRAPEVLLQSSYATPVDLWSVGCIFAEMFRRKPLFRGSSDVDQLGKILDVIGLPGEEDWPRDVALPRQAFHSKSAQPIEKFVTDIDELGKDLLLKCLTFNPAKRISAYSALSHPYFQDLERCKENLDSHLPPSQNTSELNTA
The source made the active and inactive calls.
Outcome codes: active, inactive

Compound	Target entity	Assigned category
NC(=O)c1c(OCc2c(F)cc(Br)cc2F)nsc1NC(=O)NCCCCN1CCCC1 [OSI-632]	Cyclin-dependent kinase 6 (Homo sapiens)	inactive
Cc1cccc(-c2nn3c(c2-c2ccnc4ccc(C(N)=O)cc24)CCC3)n1 [GALUNISERTIB]	Cyclin-dependent kinase 6 (Homo sapiens)	inactive
CCS(=O)(=O)c1cccc(-c2cc(C(=O)NC3CCN(C)CC3)c(C)c3[nH]c4ncc(C)cc4c23)c1 [TAK-901]	Cyclin-dependent kinase 6 (Homo sapiens)	inactive
CC(=O)NCC(=O)N1[C@@H]2CC[C@H]1c1ccc(Nc3ncc(C(F)(F)F)c(NC4CCC4)n3)cc12 [PF-03814735]	Cyclin-dependent kinase 6 (Homo sapiens)	active
COc1cc([C@@H]2c3cc4c(cc3[C@H](O)[C@H]3COC(=O)[C@@H]23)OCO4)cc(OC)c1OC [AXL-1717]	Cyclin-dependent kinase 6 (Homo sapiens)	inactive
C[C@@H](NC(=O)c1ncnc(N)c1Cl)c1ncc(C(=O)Nc2cc(C(F)(F)F)c(Cl)cn2)s1 [TOVORAFENIB]	Cyclin-dependent kinase 6 (Homo sapiens)	inactive
Nc1ncnc2c1c(-c1cccc(OCc3ccccc3)c1)cn2[C@H]1C[C@@H](CN2CCC2)C1 [AEW-541]	Cyclin-dependent kinase 6 (Homo sapiens)	inactive
CC(=O)c1cnc2ccc(-c3cc(Cl)c(O)c(Cl)c3)nc2c1N[C@H]1CC[C@H](CN(C)C)CC1	Cyclin-dependent kinase 6 (Homo sapiens)	inactive

* * *

# Target entity: AarF domain-containing protein kinase 1 (Homo sapiens); note: in the data inactive means no Kd found up to 30 µM
# Sequence (Q86TW2 whole entry, the tested form may be a part): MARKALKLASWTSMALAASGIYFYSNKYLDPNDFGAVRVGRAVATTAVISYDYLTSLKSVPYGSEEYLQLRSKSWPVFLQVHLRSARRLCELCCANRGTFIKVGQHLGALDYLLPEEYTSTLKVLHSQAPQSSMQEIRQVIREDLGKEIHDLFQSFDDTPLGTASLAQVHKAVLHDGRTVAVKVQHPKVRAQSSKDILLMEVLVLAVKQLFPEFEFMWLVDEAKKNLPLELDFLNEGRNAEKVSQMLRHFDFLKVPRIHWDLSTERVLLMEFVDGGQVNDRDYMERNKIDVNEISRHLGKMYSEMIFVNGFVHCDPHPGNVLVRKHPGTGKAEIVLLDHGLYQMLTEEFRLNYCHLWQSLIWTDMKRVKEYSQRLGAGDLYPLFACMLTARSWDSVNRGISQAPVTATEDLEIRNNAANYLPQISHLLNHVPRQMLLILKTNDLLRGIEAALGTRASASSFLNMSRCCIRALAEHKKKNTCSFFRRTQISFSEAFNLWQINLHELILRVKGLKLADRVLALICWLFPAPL
Activity calls are given as the source filed them.
In this section we review reported Kd values for a set of compounds.

Item smiles	Kd
Cc1cc(C(=O)NOCCO)c(Nc2ccc(I)cc2F)n(C)c1=O	> 30 µM (inactive)
CO[C@H]1C[C@@H]2CC[C@@H](C)[C@@](O)(O2)C(=O)C(=O)N2CCCC[C@H]2C(=O)O[C@H]([C@H](C)C[C@@H]2CC[C@@H](OC(=O)C(C)(CO)CO)[C@H](OC)C2)CC(=O)[C@H](C)/C=C(\C)[C@@H](O)[C@@H](OC)C(=O)[C@H](C)C[C@H](C)/C=C/C=C/C=C/1C	> 30 µM (inactive)
Cn1ncc(Cl)c1-c1cc(C(=O)N[C@H](CN)Cc2ccc(F)c(F)c2)oc1Cl	> 30 µM (inactive)

* * *

Activity calls are given as the source filed them.
Reported Kd for target or system Serine/threonine-protein kinase D3 (Homo sapiens), by entry. Note: in the data inactive means no Kd found up to 30 µM.
Measurement label: Kd

Item smiles	Target entity	Measurement label	Result
Cc1cc(Nc2ncc(Cl)c(Nc3ccccc3S(=O)(=O)C(C)C)n2)c(OC(C)C)cc1C1CCNCC1	Serine/threonine-protein kinase D3 (Homo sapiens)	Kd	> 30 µM (inactive)
CC(=O)c1cnc2ccc(-c3cc(Cl)c(O)c(Cl)c3)nc2c1N[C@H]1CC[C@H](CN(C)C)CC1	Serine/threonine-protein kinase D3 (Homo sapiens)	Kd	0.093 µM (active)
CO[C@H]1C[C@@H]2CC[C@@H](C)[C@@](O)(O2)C(=O)C(=O)N2CCCC[C@H]2C(=O)O[C@H]([C@H](C)C[C@@H]2CC[C@@H](O)[C@H](OC)C2)CC(=O)[C@H](C)/C=C(\C)[C@@H](O)[C@@H](OC)C(=O)[C@H](C)C[C@H](C)/C=C/C=C/C=C/1C	Serine/threonine-protein kinase D3 (Homo sapiens)	Kd	> 30 µM (inactive)
Cn1cnc2c(F)c(Nc3ccc(Br)cc3F)c(C(=O)NOCCO)cc21	Serine/threonine-protein kinase D3 (Homo sapiens)	Kd	> 30 µM (inactive)
COc1cc2c(Nc3ccc(Cl)c(Cl)c3F)ncnc2cc1OC[C@@H]1C[C@@H]2CN(C)C[C@@H]2C1	Serine/threonine-protein kinase D3 (Homo sapiens)	Kd	> 30 µM (inactive)
COc1cc2ncnc(Oc3cccc(NC(=O)Nc4cc(C(C)(C)C(F)(F)F)on4)c3)c2cc1OC	Serine/threonine-protein kinase D3 (Homo sapiens)	Kd	> 30 µM (inactive)

* * *

Item-by-item account of Kd
# Target entity: Tyrosine-protein kinase ABL2 (Homo sapiens, UniProt P42684); note: in the data inactive means no Kd found up to 30 µM
# Sequence (P42684 whole entry): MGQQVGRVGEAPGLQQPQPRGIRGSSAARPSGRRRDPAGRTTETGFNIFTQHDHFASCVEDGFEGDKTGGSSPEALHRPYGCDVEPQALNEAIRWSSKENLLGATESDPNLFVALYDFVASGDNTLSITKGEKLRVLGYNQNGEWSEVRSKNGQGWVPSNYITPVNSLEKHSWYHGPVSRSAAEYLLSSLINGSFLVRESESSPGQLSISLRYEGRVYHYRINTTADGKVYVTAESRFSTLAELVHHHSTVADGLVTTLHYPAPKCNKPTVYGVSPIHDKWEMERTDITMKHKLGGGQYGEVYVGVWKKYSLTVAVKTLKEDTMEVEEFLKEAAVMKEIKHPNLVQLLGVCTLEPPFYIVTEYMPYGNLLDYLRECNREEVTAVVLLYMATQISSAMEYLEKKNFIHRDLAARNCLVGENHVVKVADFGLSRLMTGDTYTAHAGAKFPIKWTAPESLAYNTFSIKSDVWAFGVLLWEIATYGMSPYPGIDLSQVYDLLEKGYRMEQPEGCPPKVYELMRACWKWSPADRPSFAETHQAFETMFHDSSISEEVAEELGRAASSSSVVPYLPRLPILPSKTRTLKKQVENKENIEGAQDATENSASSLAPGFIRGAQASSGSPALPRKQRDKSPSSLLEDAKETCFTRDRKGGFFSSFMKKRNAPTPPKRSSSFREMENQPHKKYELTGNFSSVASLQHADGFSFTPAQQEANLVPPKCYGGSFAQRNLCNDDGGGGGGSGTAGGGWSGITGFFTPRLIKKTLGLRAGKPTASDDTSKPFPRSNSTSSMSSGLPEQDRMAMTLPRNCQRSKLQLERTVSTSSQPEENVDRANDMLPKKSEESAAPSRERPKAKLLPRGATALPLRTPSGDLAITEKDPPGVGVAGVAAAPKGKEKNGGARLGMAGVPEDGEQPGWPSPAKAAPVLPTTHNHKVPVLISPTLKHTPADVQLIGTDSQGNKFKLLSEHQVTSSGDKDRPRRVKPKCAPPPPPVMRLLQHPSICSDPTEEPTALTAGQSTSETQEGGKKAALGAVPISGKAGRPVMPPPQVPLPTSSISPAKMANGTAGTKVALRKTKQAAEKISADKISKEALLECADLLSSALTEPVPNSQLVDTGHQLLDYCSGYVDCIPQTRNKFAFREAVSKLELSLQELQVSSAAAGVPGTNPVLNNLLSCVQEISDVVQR
Active and inactive are the calls of the source.
Measurement label: Kd

Molecule	Result
CO[C@H]1C[C@@H]2CC[C@@H](C)[C@@](O)(O2)C(=O)C(=O)N2CCCC[C@H]2C(=O)O[C@H]([C@H](C)C[C@@H]2CC[C@@H](OC(=O)C(C)(CO)CO)[C@H](OC)C2)CC(=O)[C@H](C)/C=C(\C)[C@@H](O)[C@@H](OC)C(=O)[C@H](C)C[C@H](C)/C=C/C=C/C=C/1C [TEMSIROLIMUS]	> 30 µM (inactive)
CC(C)(C)c1nc(-c2cccc(NS(=O)(=O)c3c(F)cccc3F)c2F)c(-c2ccnc(N)n2)s1 [DABRAFENIB]	0.305 µM (active)
CNC(=O)c1nn(C)c2c1C(C)(C)Cc1cnc(Nc3ccc(N4CCN(C)CC4)cc3)nc1-2 [MILCICLIB]	3.75 µM
NC1(c2ccc(-c3nc4ccn5c(=O)[nH]nc5c4cc3-c3ccccc3)cc2)CCC1 [MK-2206]	> 30 µM (inactive)
COc1cc([C@@H]2c3cc4c(cc3[C@H](O)[C@H]3COC(=O)[C@@H]23)OCO4)cc(OC)c1OC [AXL-1717]	> 30 µM (inactive)
Cc1cc(Nc2ncc(Cl)c(Nc3ccccc3S(=O)(=O)C(C)C)n2)c(OC(C)C)cc1C1CCNCC1 [CERITINIB]	> 30 µM (inactive)

* * *

# Target entity: Serine/threonine-protein kinase D2 (Homo sapiens, UniProt Q9BZL6); note: in the data inactive means no Kd found up to 30 µM
# Sequence (Q9BZL6 whole entry): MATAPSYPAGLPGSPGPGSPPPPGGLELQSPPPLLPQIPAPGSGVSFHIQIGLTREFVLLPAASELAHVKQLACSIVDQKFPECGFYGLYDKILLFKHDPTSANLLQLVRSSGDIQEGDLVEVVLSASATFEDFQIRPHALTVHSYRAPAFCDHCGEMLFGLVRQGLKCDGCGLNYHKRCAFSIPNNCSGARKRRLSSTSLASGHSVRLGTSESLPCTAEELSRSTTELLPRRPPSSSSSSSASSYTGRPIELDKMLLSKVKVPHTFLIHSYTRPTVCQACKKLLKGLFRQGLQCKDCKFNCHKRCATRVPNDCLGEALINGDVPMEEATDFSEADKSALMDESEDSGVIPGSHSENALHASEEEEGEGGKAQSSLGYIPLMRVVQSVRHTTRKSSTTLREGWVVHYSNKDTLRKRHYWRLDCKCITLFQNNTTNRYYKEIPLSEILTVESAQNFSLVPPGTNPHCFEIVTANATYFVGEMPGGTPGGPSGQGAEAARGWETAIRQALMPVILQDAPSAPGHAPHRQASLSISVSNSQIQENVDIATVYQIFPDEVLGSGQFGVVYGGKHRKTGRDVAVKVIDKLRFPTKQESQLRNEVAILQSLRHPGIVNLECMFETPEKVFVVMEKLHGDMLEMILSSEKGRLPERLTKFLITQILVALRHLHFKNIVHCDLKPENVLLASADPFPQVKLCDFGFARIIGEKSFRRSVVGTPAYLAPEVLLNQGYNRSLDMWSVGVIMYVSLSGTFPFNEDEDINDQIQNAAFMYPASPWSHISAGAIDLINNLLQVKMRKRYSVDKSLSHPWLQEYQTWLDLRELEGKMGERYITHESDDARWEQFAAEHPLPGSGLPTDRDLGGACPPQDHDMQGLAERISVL
Active and inactive are the calls of the source.
Classes used: active, inactive

Molecule	Target entity	Assigned category
Cc1cnc(NC(=O)Nc2cc(Br)c(C)cc2OC[C@@H]2CNCCO2)cn1	Serine/threonine-protein kinase D2 (Homo sapiens, UniProt Q9BZL6)	inactive
O=C(Nc1nc2cccc(-c3ccc(CN4CCS(=O)(=O)CC4)cc3)n2n1)C1CC1	Serine/threonine-protein kinase D2 (Homo sapiens, UniProt Q9BZL6)	inactive
C=CC(=O)Nc1cc2c(Nc3ccc(F)c(Cl)c3)ncnc2cc1C#CC(C)(C)N1CCN(C)CC1 [AV-412 FREE BASE]	Serine/threonine-protein kinase D2 (Homo sapiens, UniProt Q9BZL6)	inactive
C#Cc1cccc(Nc2ncnc3cc(OC)c(OCCCCCCC(=O)NO)cc23)c1	Serine/threonine-protein kinase D2 (Homo sapiens, UniProt Q9BZL6)	inactive
Cn1cc(-c2cnc3ccc4ccc(CS(=O)(=O)NCc5ccccn5)cc4c(=O)c3c2)cn1	Serine/threonine-protein kinase D2 (Homo sapiens, UniProt Q9BZL6)	inactive
COc1c(OCCCN2CCOCC2)ccc2c1N=C(NC(=O)c1cnc(N)nc1)N1CCN=C21	Serine/threonine-protein kinase D2 (Homo sapiens, UniProt Q9BZL6)	inactive
COc1cc2c(Nc3ccc(Cl)c(Cl)c3F)ncnc2cc1OC[C@@H]1C[C@@H]2CN(C)C[C@@H]2C1	Serine/threonine-protein kinase D2 (Homo sapiens, UniProt Q9BZL6)	inactive
N#CC1(c2ccc(NC(=O)c3cccnc3NCc3ccncc3)cc2)CCCC1	Serine/threonine-protein kinase D2 (Homo sapiens, UniProt Q9BZL6)	inactive
COc1cc([C@@H]2c3cc4c(cc3[C@H](O)[C@H]3COC(=O)[C@@H]23)OCO4)cc(OC)c1OC	Serine/threonine-protein kinase D2 (Homo sapiens, UniProt Q9BZL6)	inactive
Cc1csc(-c2nnc(Nc3ccc(Oc4ncccc4-c4ccnc(N)n4)cc3)c3ccccc23)c1	Serine/threonine-protein kinase D2 (Homo sapiens, UniProt Q9BZL6)	active
FC(F)(F)c1ccc(/C=C/c2nc(COc3ccc(CCCCn4ccnn4)cc3)co2)cc1	Serine/threonine-protein kinase D2 (Homo sapiens, UniProt Q9BZL6)	inactive
CNC(=O)c1cc(Oc2ccc(NC(=O)Nc3cc(C(C)(C)C)nn3-c3ccc4ncccc4c3)c(F)c2)ccn1	Serine/threonine-protein kinase D2 (Homo sapiens, UniProt Q9BZL6)	inactive
CN1CCN(CCOc2cc(OC3CCOCC3)c3c(Nc4c(Cl)ccc5c4OCO5)ncnc3c2)CC1	Serine/threonine-protein kinase D2 (Homo sapiens, UniProt Q9BZL6)	inactive
CO[C@H]1C[C@@H]2CC[C@@H](C)[C@@](O)(O2)C(=O)C(=O)N2CCCC[C@H]2C(=O)O[C@H]([C@H](C)C[C@@H]2CC[C@@H](OP(C)(C)=O)[C@H](OC)C2)CC(=O)[C@H](C)/C=C(\C)[C@@H](O)[C@@H](OC)C(=O)[C@H](C)C[C@H](C)/C=C/C=C/C=C/1C	Serine/threonine-protein kinase D2 (Homo sapiens, UniProt Q9BZL6)	inactive
CCS(=O)(=O)c1cccc(-c2cc(C(=O)NC3CCN(C)CC3)c(C)c3[nH]c4ncc(C)cc4c23)c1	Serine/threonine-protein kinase D2 (Homo sapiens, UniProt Q9BZL6)	inactive

* * *

# Target entity: DnaJ homolog subfamily A member 1 (Homo sapiens, UniProt P31689); note: in the data inactive means no Kd found up to 30 µM
# Sequence (P31689 whole entry): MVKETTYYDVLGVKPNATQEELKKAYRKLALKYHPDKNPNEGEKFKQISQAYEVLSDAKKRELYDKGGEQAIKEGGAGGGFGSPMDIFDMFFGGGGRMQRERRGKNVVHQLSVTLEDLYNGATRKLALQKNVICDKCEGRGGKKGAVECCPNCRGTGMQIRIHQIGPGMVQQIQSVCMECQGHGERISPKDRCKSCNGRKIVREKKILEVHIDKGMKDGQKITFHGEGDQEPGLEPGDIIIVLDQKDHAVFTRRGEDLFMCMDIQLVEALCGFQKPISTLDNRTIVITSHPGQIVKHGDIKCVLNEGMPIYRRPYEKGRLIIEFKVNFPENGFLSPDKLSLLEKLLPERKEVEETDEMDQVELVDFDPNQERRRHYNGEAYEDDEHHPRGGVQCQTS
The source made the active and inactive calls.

Compound	Kd
CCS(=O)(=O)c1cccc(-c2cc(C(=O)NC3CCN(C)CC3)c(C)c3[nH]c4ncc(C)cc4c23)c1 [TAK-901]	> 30 µM (inactive)
C#Cc1cccc(Nc2ncnc3cc(OC)c(OCCCCCCC(=O)NO)cc23)c1 [CUDC-101]	> 30 µM (inactive)
CN1C/C=C/CCOc2cccc(c2)-c2ccnc(n2)Nc2cccc(c2)C1 [ZOTIRACICLIB]	> 30 µM (inactive)
Cn1cc(C2=C(c3cn(C4CCN(Cc5ccccn5)CC4)c4ccccc34)C(=O)NC2=O)c2ccccc21 [ENZASTAURIN]	> 30 µM (inactive)
O=C(NOCCO)c1cc(CN2OCCCC2=O)c(F)c(F)c1Nc1ccc(I)cc1F [RO-4987655]	> 30 µM (inactive)
O=C(Nc1cc(C(F)(F)F)cc(C(F)(F)F)c1)c1cc(Cl)ccc1O [IMD-0354]	> 30 µM (inactive)
C[C@H]1CNCCCN1S(=O)(=O)c1cccc2cncc(F)c12	> 30 µM (inactive)
C=CC(=O)Nc1cc2c(Nc3ccc(F)c(Cl)c3)ncnc2cc1C#CC(C)(C)N1CCN(C)CC1 [AV-412 FREE BASE]	> 30 µM (inactive)
